# measurement_protocol: solubility in phosphate buffer with/without 0.9% NaCl, pH serially lowered with acetic acid, concentration remaining in solution
# Format: physicochemical
# condition_info: pH 7, PBS without NaCl, pH 7; read-out: Solubility pH 7
Ends that are not written are not given here.
property: solubility (µg/mL)

- polymer_sequence: "DSQVIVEEVSIFPVEEQQEVPPD [SEQ ID NO: 32]"
  readout_value: 402
- polymer_sequence: "NEGIEITEVTAPPEDNPVEDSQ [SEQ ID NO: 31]"
  readout_value: 825
- polymer_sequence: "DMEEMMSEQENPDSSEPVVEDE [SEQ ID NO: 30]"
  readout_value: 710
- polymer_sequence: "GEDLQQEDGPTGEPQQEDDEFL [SEQ ID NO: 29]"
  readout_value: 748

* * *

# measurement_protocol: solubility in phosphate buffer with/without 0.9% NaCl, pH serially lowered with acetic acid, concentration remaining in solution
# Type: physicochemical
# condition_info: pH 7, PBS with 0.9% NaCl, pH 7; read-out: Solubility pH 7
Ends that are not written are not given here.
Consider the following sequences and their measured solubility readings.

- polymer_sequence: "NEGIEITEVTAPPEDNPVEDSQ [SEQ ID NO: 31]"
  solubility / µg/mL: 838
- polymer_sequence: "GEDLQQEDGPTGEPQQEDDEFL [SEQ ID NO: 29]"
  solubility / µg/mL: 701
- polymer_sequence: "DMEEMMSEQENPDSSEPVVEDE [SEQ ID NO: 30]"
  solubility / µg/mL: 539
- polymer_sequence: "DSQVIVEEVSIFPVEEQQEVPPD [SEQ ID NO: 32]"
  solubility / µg/mL: 412

* * *

solubility values, listed per item
# measurement_protocol: solubility in phosphate buffer with/without 0.9% NaCl, pH serially lowered with acetic acid, concentration remaining in solution
# Type: physicochemical
# condition_info: pH 5, PBS with 0.9% NaCl, pH 5; read-out: Solubility pH 5
Ends that are not written are not given here.
property: solubility (µg/mL)

- polymer_sequence: "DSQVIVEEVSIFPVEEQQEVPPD [SEQ ID NO: 32]"
  readout_value: 401
- polymer_sequence: "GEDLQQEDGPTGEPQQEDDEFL [SEQ ID NO: 29]"
  readout_value: 694
- polymer_sequence: "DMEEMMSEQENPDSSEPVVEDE [SEQ ID NO: 30]"
  readout_value: 510
- polymer_sequence: "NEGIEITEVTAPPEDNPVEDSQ [SEQ ID NO: 31]"
  readout_value: 813
